System: SK-MEL-5 melanoma
experimentalDetails: NCI tumour cell line growth inhibition, 48 h; in the data active = GI50 below about 0.43 µM; inactive = the rest
Please reply with one of these outcomes: true (1) = active, false (0) = inactive

O=[N+]([O-])c1ccc2c(c1)[O][Sn]([I])([I])[O]2 ... false (0)
COc1ccc(Cn2c(Cl)c(/C=C3/C(=O)Nc4ccccc43)c3cc(OC)c(C)cc32)cc1 ... false (0)
COc1cc(S(C)(=O)=O)ccc1Nc1nc2ccc(-c3ccc(NC(=O)[C@H](C)c4ccc(F)cc4)cc3)cn2n1 ... true (1)
COC(=O)CCCCCN=Cc1c(O)c(O)c(C(C)C)c2cc(C)c(-c3c(C)cc4c(C(C)C)c(O)c(O)c(C=NCCCCCC(=O)OC)c4c3O)c(O)c12 ... false (0)
CCC(c1cccc(O)c1)C(CC)c1cccc(O)c1 (centres undefined) ... false (0)
COC(=O)C1=C(C(=O)OC)SC(=C(Cl)C(=S)Sc2ccccc2N)S1 ... false (0)
Cn1cc(CNCC2CCN(c3ncc(C(=O)NO)cn3)CC2)c2ccccc21 ... true (1)
COC(=O)CCC1=C(C)/C(=C/c2[nH]c(-c3ccc[nH]3)cc2OC)N=C1C ... true (1)

Now take the following molecule into account.
Ask: Call for entry `O=C1CCCN1CC#CCN1CCCC1` :
Reply: false (0)

###

Test system: IGROV1 ovarian
experimentalDetails: NCI tumour cell line growth inhibition, 48 h
property: TGI

Worked examples follow.
CCN1CSC(=S)N(CC)C1 ... > 100 µM
CCOc1c(Cl)cc(CNC(C)C(O)c2ccccc2)cc1OC (centres undefined) ... > 100 µM
CSc1c(C#N)c2n(c3ccccc13)c1ccccc1[n+]2C ... > 100 µM
C=C=C(C(=O)OC)S(=O)c1ccc([N+](=O)[O-])cc1[N+](=O)[O-] (centres undefined) ... 97.5 µM
COc1cc(S(C)(=O)=O)ccc1Nc1nc2ccc(-c3ccc(NC(=O)[C@H](C)c4ccc(F)cc4)cc3)cn2n1 ... > 100 µM
FCc1ncc(-c2ccc(C(F)(F)F)cc2)c(NC2CCCCCC2)n1 ... > 10 µM

Ask: Fill in the blank: the reported TGI of O=C1C(Br)=C(c2ccccc2)S(=O)c2ccccc21 (centres undefined) is ____.
Reply: 23.1 µM

Ask: Which TGI value belongs to `O=C([CH-]C(=O)C(F)(F)F)c1ccccc1.O=C([CH-]C(=O)C(F)(F)F)c1ccccc1.O=C([CH-]C(=O)C(F)(F)F)c1ccccc1.O=C([CH-]C(=O)C(F)(F)F)c1ccccc1.[Eu+3].c1ccncc1` ?
Reply: > 100 µM

Ask: Need TGI of `Cn1c(=O)c2c(ncn2CN2CCN(Cn3cnc4c3c(=O)n(C)c(=O)n4C)CC2)n(C)c1=O` , thanks.
Reply: > 100 µM

###

System: DMS 273 small cell lung
experimentalDetails: NCI tumour cell line growth inhibition, 48 h
property: TGI

Cc1nn(-c2ccccc2)c(-c2ccccc2[N+](=O)[O-])c1CC#N ... > 100 µM
O=[N+]([O-])c1ccc2c(c1)[O][Sn][O]2 ... > 150 µg/mL
COc1ccc(/C=C2\C(=O)N(C(=O)Cc3ccccc3)N=C2C)cc1OC ... > 100 µM
CCOC(=O)C(=O)Nc1c(C(C)C)cccc1C(C)C ... > 100 µM

Next up:
Ask: // query TGI value for entry `COc1cc2c(cc1OC)-c1c3c(cc4c1[C@@H](C2)N(C)CC4)OCO3`
Reply: 14.5 µM

The origin of these recorded values is PubChem BioAssay (NCI).
